target entity: T1, Tat(44-61) (UniProt P04608 44-61)
T1 chain: GISYGRKKRRQRRRAHQN
experiment: MST
measure: Kd (µM)
Note: unit µM is implicit; provide only the numeric part.

stdin: What value of measured Kd is listed for ds21R (dsRNA) RNA 1: AUGUGGAAAAUCUCUAGCAGU RNA 2: ACUGCUAGAGAUUUUCCACAU ?
stdout: 7.4
